Hey, just so you know, these numbers are from patent US20140219913A1.

Biological target: T1, Recombinant human B7-1/CD80 Fc chimera (Cat. 140-B1-100, R&D Systems) (human, UniProt P33681 35-242)
T1 construct: extracellular domain; also called B7-1 antigen; Fc part of the bought chimera not given; not described
T1 sequence (looked up): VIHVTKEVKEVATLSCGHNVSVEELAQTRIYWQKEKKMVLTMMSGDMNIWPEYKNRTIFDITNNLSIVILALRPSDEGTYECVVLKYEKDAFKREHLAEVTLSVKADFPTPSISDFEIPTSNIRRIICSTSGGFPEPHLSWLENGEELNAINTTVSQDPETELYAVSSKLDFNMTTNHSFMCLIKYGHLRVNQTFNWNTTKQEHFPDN
Test: competitive ELISA; coated CD28 Fc, biotinylated B7-1/CD80 Fc (2 nM), construct titrated
pEC50: −log10 of the molar value.
ASSAY_METRIC: pEC50

binder="RAB020 (other, rDVD-Ig with LEA29Y on the heavy chain only and a QH linker; also called RAB020H; RAB020L) VH: AMHVAQPAVVLASSRGIASFVCEYASPGKYTEVRVTVLRQADSQVTEVCAATYMMGNELTFLDDSICTGTSSGNQVNLTIQGLRAMDTGLYICKVELMYPPPYYEGIGNGTQIYVIDPEPCPDSDQEPKSSDKTHTSPEVQLVQSGAEVKKPGASVKVSCKASGYTFTKYWLGWVRQAPGQGLEWMGDIYPGYDYTHYNEKFKDRVTLTTDTSTSTAYMELRSLRSDDTAVYYCARSDGSSTYWGQGTLVTVSS VL: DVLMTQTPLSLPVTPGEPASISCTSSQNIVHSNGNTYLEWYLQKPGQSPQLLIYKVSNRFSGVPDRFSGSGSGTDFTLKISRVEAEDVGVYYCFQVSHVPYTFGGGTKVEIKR" assay_metric=pEC50 endpoint_value=8.77
binder="RAB021 (other, rDVD-Ig with LEA29Y on the light chain only and a QH linker; also called RAB021H; RAB021L) VH: EVQLVQSGAEVKKPGASVKVSCKASGYTFTKYWLGWVRQAPGQGLEWMGDIYPGYDYTHYNEKFKDRVTLTTDTSTSTAYMELRSLRSDDTAVYYCARSDGSSTYWGQGTLVTVSS VL: AMHVAQPAVVLASSRGIASFVCEYASPGKYTEVRVTVLRQADSQVTEVCAATYMMGNELTFLDDSICTGTSSGNQVNLTIQGLRAMDTGLYICKVELMYPPPYYEGIGNGTQIYVIDPEPCPDSDQEPKSSDKTHTSPDVLMTQTPLSLPVTPGEPASISCTSSQNIVHSNGNTYLEWYLQKPGQSPQLLIYKVSNRFSGVPDRFSGSGSGTDFTLKISRVEAEDVGVYYCFQVSHVPYTFGGGTKVEIKR" assay_metric=pEC50 endpoint_value=8.62
binder="RAB011 (other, rDVD-Ig with LEA29Y on the heavy chain only and anti-NGF variable domains; also called RAB011H; RAB011L) VH: AMHVAQPAVVLASSRGIASFVCEYASPGKYTEVRVTVLRQADSQVTEVCAATYMMGNELTFLDDSICTGTSSGNQVNLTIQGLRAMDTGLYICKVELMYPPPYYEGIGNGTQIYVIDPEPCPDSDASTKGPQVQLQESGPGLVKPSETLSLTCTVSGFSLIGYDLNWIRQPPGKGLEWIGIIWGDGTTDYNSAVKSRVTISKDTSKNQFSLKLSSVTAADTAVYYCARGGYWYATSYYFDYWGQGTLVTVSS VL: DIQMTQSPSSLSASVGDRVTITCRASQSISNNLNWYQQKPGKAPKLLIYYTSRFHSGVPSRFSGSGSGTDFTFTISSLQPEDIATYYCQQEHTLPYTFGQGTKLEIKR" assay_metric=pEC50 endpoint_value=8.80
binder="RAB008 (other, rDVD-Ig with LEA29Y on the heavy chain only; also called RAB008H; RAB008L) VH: AMHVAQPAVVLASSRGIASFVCEYASPGKYTEVRVTVLRQADSQVTEVCAATYMMGNELTFLDDSICTGTSSGNQVNLTIQGLRAMDTGLYICKVELMYPPPYYEGIGNGTQIYVIDPEPCPDSDASTKGPEVQLVQSGAEVKKPGASVKVSCKASGYTFTKYWLGWVRQAPGQGLEWMGDIYPGYDYTHYNEKFKDRVTLTTDTSTSTAYMELRSLRSDDTAVYYCARSDGSSTYWGQGTLVTVSS VL: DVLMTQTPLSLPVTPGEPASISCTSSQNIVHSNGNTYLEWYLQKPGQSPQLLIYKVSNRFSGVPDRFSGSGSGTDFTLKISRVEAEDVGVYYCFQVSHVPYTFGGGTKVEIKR" assay_metric=pEC50 endpoint_value=8.82
